Tested on: HOP-62 multicell spheroids with HUVEC/MSC, viability
Assay: Anticancer human tumor HOP-62 cell line growth inhibition [KRAS2];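 further: viability read after a week of compound exposure; 100% = DMSO vehicle-treated spheroids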
Conditions: second compound 10 µM; first compound 0.01 µM; active compounds read low
quantity: viability, T/C (%)
Note: unit % is implicit; provide only the numeric part.

Answered cases to consult:
CN(C)C/C=C/C(=O)Nc1cc2c(Nc3ccc(F)c(Cl)c3)ncnc2cc1O[C@H]1CCOC1 + CNCc1ccccc1-c1csc(C(C)Nc2nc(C)nc3cc(OC)c(OC)cc23)c1
0.15
CC(=O)Nc1cccc(-n2c(=O)n(C3CC3)c(=O)c3c(Nc4ccc(I)cc4F)n(C)c(=O)c(C)c32)c1 + C=CC(=O)N1CCN(c2nc(=O)n(-c3c(C)ccnc3C(C)C)c3nc(-c4c(O)cccc4F)c(F)cc23)C(C)C1
26.8

Now, please, on to the next molecule.
Query: Requested field: viability, T/C. Item: CC(=O)OC12COC1CC(O)C1(C)C(=O)C(O)C3=C(C)C(OC(=O)C(O)C(NC(=O)OC(C)(C)C)c4ccccc4)CC(O)(C(OC(=O)c4ccccc4)C21)C3(C)C (stereo not drawn) + C=CC(=O)N1CCN(c2nc(=O)n(-c3c(C)ccnc3C(C)C)c3nc(-c4c(O)cccc4F)c(F)cc23)C(C)C1
Result: 28.1
